B1: library; numbered along this chain (parent)
chain: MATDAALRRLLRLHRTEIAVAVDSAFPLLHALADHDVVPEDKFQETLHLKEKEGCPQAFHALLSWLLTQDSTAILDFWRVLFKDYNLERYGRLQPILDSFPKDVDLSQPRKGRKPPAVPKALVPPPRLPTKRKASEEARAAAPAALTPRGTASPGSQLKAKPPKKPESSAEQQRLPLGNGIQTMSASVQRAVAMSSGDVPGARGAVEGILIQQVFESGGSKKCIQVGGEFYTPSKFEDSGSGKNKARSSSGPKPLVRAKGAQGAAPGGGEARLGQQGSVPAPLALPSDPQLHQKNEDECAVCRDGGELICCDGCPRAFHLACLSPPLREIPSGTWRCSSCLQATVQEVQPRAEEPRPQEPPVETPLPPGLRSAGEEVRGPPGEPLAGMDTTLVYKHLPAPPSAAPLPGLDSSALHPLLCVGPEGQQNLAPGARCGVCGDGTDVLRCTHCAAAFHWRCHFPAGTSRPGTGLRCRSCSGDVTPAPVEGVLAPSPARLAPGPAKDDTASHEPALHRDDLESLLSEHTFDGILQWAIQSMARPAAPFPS

- Variants of: B1
- assay-summary: AIRE transcriptional activation functional score (insulin promoter-GFP; nonsense median 0, synonymous median 1) (normalised score); higher = higher AIRE activity (more reporter activation)
- experimental-conditions: with insulin promoter-GFP reporter in HEK293
Measured AIRE transcriptional activation functional score accompanies every entry in the list below.
value-kind: AIRE transcriptional activation functional score

- mutant-name: "Y394T"
  endpoint-result: 0.126
- mutant-name: "G313P"
  endpoint-result: 0.756
- mutant-name: "V484A"
  endpoint-result: 0.726
- mutant-name: "C322R"
  endpoint-result: 0.999
- mutant-name: "C449Q"
  endpoint-result: 0.388
- mutant-name: "M194I"
  endpoint-result: 1.08
- mutant-name: "A170H"
  endpoint-result: 1.86
- mutant-name: "K159I"
  endpoint-result: 1.4
- mutant-name: "S169A"
  endpoint-result: 0.813
- mutant-name: "S412C"
  endpoint-result: 0.988
- mutant-name: "R92V"
  endpoint-result: -0.0193

From: the supplement of paper PMC12667976
